test: yeast display, Sf9 membrane polyspecificity reagent, FACS + sequencing; frameworks hold sequencing errors
Measured Attribute: polyreactivity (PSR sort gate)

Previously resolved entries follow.
[
  {
    "Residues": "QVQLVESGAGLVQAGGSLRLSCAPSGITFVGNAMGWSRPAPGKERELVAGIRGNGGSTYYADSVKGRFTISRDNAKNTVYFQMNSLKPEDTAVYYSAAAAYYADFDYWGLGTQVTVSS",
    "polyreactivity (PSR sort gate)": "low polyreactivity"
  },
  {
    "Residues": "QVQLLESGGGLVQAGGSLRESCAASGSMFSHNTMGWYRQAPGKERELVATINWRATYYADSVKGRFTISRDNAKNTVYLQMNSLKPEDTAGYYCNKDRQRYGEDYWGQGTQVTVSS",
    "polyreactivity (PSR sort gate)": "high polyreactivity"
  },
  {
    "Residues": "QVQLVESGGGLVQAGGSLRLSCAASGSTFVYNAMGWYRQAPGKERELVAAITVIGGRTYYADSVKGRFTISRDNAKNTVYLQMISLKPEDTAVYYCNADATESIGYYDEYEYWGQGTQVTVSS",
    "polyreactivity (PSR sort gate)": "low polyreactivity"
  },
  {
    "Residues": "QVQLVESGGCLVQAGGSLRLSCAASGSIFYRNAMGWYRQAPGKERELVAAISSDGSTNYADSVKGRFTISRDNAKNTVYLQMNSLKPEDTAVYYCAAPWTQILDYWGQGTQVTVSS",
    "polyreactivity (PSR sort gate)": "low polyreactivity"
  },
  {
    "Residues": "QVQLVESGGGLVQAGGSLRLICAASGTTFGRNAMGWYRQAPGKERELVDAIDSGASTYYADSVKGRFTISRDNAKNTVYLQMNSLKPEDTAVYYCGADVVYDYGGMDYWGQGTQVTVSS",
    "polyreactivity (PSR sort gate)": "low polyreactivity"
  }
]

Sure, the documented polyreactivity (PSR sort gate) for QVQLVESGGGLVQAGGSLRLSCAASGLIFTTNAMGWSRPAPGTEREFVAAISPSGGSTYYADSVKGRFTISRDNAKNTVYLQMNSLKPEDTAVYYCAARYSPVWHKYYYWGQGTQVTVSS is high polyreactivity

Sure, the documented polyreactivity (PSR sort gate) for QVQLVESGGGLVQAGGSLRLSCAASGITFAYYAMGWYRQAPGKERELVAAISRSGGGTYYADSVKGRFTISRDNAKNTVYLQMNSLKPEDTAVYYCNKDYPYYNSGPWAYKFDYWGQGTQVTVSS is high polyreactivity

Sure, the documented polyreactivity (PSR sort gate) for QVQLVESVGGLVQAGGSLRLSCAASGSTFAGYAMGWYRQAPGKERELVAAISGGRTYYADSVKGRFTISRDNAKNTVYLQMNSLQPEDTAVYYCAKRYFYYTAYNAYGYWGQGTQVTVSS is high polyreactivity

Sure, the documented polyreactivity (PSR sort gate) for QVQLVESGGGLVQAGGSLRLSCAASGRIFTHNAMGWYRQAPGKERELVAAISYSGVSTYYADSVKGRFTISRDNAKNTVYLHMNSLKPEDTAVYYCNALIQSWRARIRRYYWGQGTQVTVSS is low polyreactivity

Sure, the documented polyreactivity (PSR sort gate) for QVQLVESGGGLVQAGGSLRLSCAASGSTFVVNTMGRYRQAPGKERELVAAISTGSSTYADSVKGRFTISRDNAKNTVYLQMNSLKPEDTAVYYCNTAFPGKYDYWGQGTQVTVSS is low polyreactivity

Sure, the documented polyreactivity (PSR sort gate) for QVQLVESGGGLVQAGGSLRLSCAASGSTSSVYTMGWYRPAPGKERELVASISIRGTRTYADSVKGRFTISRDNAKNTVYLQMNSLKPEDTAVYYCAARYPWYVYTIYGYWGQGTQVTVSS is high polyreactivity

* * *

assay: yeast display, Sf9 membrane polyspecificity reagent, FACS + sequencing; frameworks hold sequencing errors
Measured Attribute: polyreactivity (PSR sort gate)

Previously resolved entries follow.
[
  {
    "Residues": "QVQLVESGGGLVQAGGSLRLSCAASGSTIVYNAMGWYRQAPGKEREFVAAISWSGGSTYYADSVKGRFTISRDNAKNTVYLQMNSLKPEDTAIYYCAATSRSNGFRYYYWGQGTQVTVSS",
    "Measured Attribute": "polyreactivity (PSR sort gate)",
    "Result": "high polyreactivity"
  },
  {
    "Residues": "KVQVVESGGGFVQAGGSLGLSCAASGRIFGVYAMGWYTQAPGKERELVAAINYSGTRTYYADSVKGRFTISRDNGKNTVYLQMNSLKPEDSAVYYCGARRGSYSVTEYWGQGTQVNVSS",
    "Measured Attribute": "polyreactivity (PSR sort gate)",
    "Result": "high polyreactivity"
  },
  {
    "Residues": "QVQLVESGGGLVQAGGSLRLSCAASGVIFKPSAMGWYRQAPGKERELVASISTGARTYYADSVKGRFTISRDTAKNTVYLQLNSLKPEDTAVYYCAAAYSRWITRYDYWGQGTQVTVSS",
    "Measured Attribute": "polyreactivity (PSR sort gate)",
    "Result": "high polyreactivity"
  },
  {
    "Residues": "QVQLVESGGGLVQAGGSLRLSCAASGFTFYKNTMGWYRQAPGKERELVAAISGSGGRTYYADSVKGRFTISRDNAKNTVYLQMTSLKPEDTAVYYCNAAARYRWQYVYSLYEYGHWGQGTQVTVSS",
    "Measured Attribute": "polyreactivity (PSR sort gate)",
    "Result": "high polyreactivity"
  },
  {
    "Residues": "QVQLVESGGGLVQAGGSLRLSCAASGFTFASNAMGWYRQAPWKERELDAGISRTGTTTYYADSVKGRFTISRDNAKNTVYLQMNSLKPEDTAVYYCAASKQAVKYRSQRYYYWGQGTQVTVSS",
    "Measured Attribute": "polyreactivity (PSR sort gate)",
    "Result": "high polyreactivity"
  }
]

Sure, the documented polyreactivity (PSR sort gate) for QVQLVESGGGLVQAGGSLRLSCAASGFFFGFYAMGWYRQAPGKERELVASISGRGGRTSYADSVKGRFTISRDNAKITVYLQMNSLKPEDTAVYYCNKAGYGVSRKYDYWGQGTQVTVSS is high polyreactivity

Sure, the documented polyreactivity (PSR sort gate) for QVQLVESGGGLVQAGGSLRLSCAASGLIFAVYTMGWYRQAPGKERELVAAITRRSTRTYYADSVKGRFTISRDNAKNTVYLQMNSLKPEDTAVYYCAADRGSSGAAFEYWGQGTQVTVSS is low polyreactivity

* * *

test: yeast display, Sf9 membrane polyspecificity reagent, FACS + sequencing; frameworks hold sequencing errors
Measured Attribute: polyreactivity (PSR sort gate)

[
  {
    "Residues": "QVQLVESGGGLVQAGGSLRLSCAASGFTFYGYTMGWYRQAPGKEREVVAAITSDGDTNYADSVKGRFTISRDNAKNNVYLQMNSLIPEDTAVYYCNADPGFFFYWWTGDYWGQGTQVTVSS",
    "Result": "low polyreactivity"
  },
  {
    "Residues": "QVQLVESGGGLVQAGGSLRLSCAASGGIFARYAMGWYRQAPGKEREFVAAISFSGASTYYADSVKGRFTISRDNAKNTVYLQMNSLKPEDTAVYYCAAYWDAEGRRYTRLDYWGQGTQVTVSS",
    "Result": "low polyreactivity"
  },
  {
    "Residues": "QVQLVESGGGLVQAGGSLRLSCAASGITFYGYDMGWYRQAPAKERELVAAITSDGITNYADSVKGRFTISRDNAKNTVYLQMNSLKPEDTAVYYCNAVFRPGSFLYDWRAYDYWGQGTQVTVSS",
    "Result": "low polyreactivity"
  }
]

* * *

experiment: yeast display, Sf9 membrane polyspecificity reagent, FACS + sequencing; frameworks hold sequencing errors
Measured Attribute: polyreactivity (PSR sort gate)

[
  {
    "Residues": "QVQLVESGGCLVQAGGSLRLSCAASGFIFGYYAMGWYRPPPGKESELVAAISWSGVSTYYADSVKGRFTISRDNAKNTVYLQMNSLKPEDTAVYYCAVGYVLTGVFQARFDYWGQGTQATVSS",
    "Measured Attribute": "polyreactivity (PSR sort gate)",
    "Result": "high polyreactivity"
  },
  {
    "Residues": "QVQLVESGGGLVQAGGSLRLSCAASGFTFRYYAMGWYRQAPGKERELVAGITWSGTNTYYADSVKGRFTISRDNAKNTVYLQMNSLKPEDTAVYYCITSPYLHYYYWGQGTQVTVSS",
    "Measured Attribute": "polyreactivity (PSR sort gate)",
    "Result": "high polyreactivity"
  }
]

* * *

assay: yeast display, Sf9 membrane polyspecificity reagent, FACS + sequencing; frameworks hold sequencing errors
Measured Attribute: polyreactivity (PSR sort gate)

Previously resolved entries follow.
[
  {
    "Residues": "QVQLVESGGGLVQAGGSLRLSLAASGSNFSSYAMGWYRQAPGKEREWVAAIRLIGGTTYYADSVKGRFTISRDNAKNTVYLQMNSLKPEDTAVYYCNAPSYPDYIYWSQRYDYDYWGQGTKVTVSS",
    "polyreactivity (PSR sort gate)": "low polyreactivity"
  },
  {
    "Residues": "QVQLEESGGGLVQAGGSLRLSCAASGGIFDYNSMGWYRQAPGKERELVAAISSGASTTYADSVKGRFTISRDNAKNTVYLQMNSLKPEATAVYYCAAYWKSRYLSGLEYYSWGQGTQVTVSS",
    "polyreactivity (PSR sort gate)": "low polyreactivity"
  },
  {
    "Residues": "QVQLVESGGGLFQAGGSLRLSCAASGRIFGYNSMGWDRQAPGKERELVAAIRRRGGTTYYADSVKGRFTISRDNAKNTVYLQMNSLKPEDNAVYYCAADLTFSYRQSAGRYSTYGYWGQGTQVTVSS",
    "polyreactivity (PSR sort gate)": "high polyreactivity"
  },
  {
    "Residues": "QVQFVESGGGLVQAGGSLRLSCAASGSTFQGYAMGWYRQAPGKERELVAAISRSGGRTYYADSVKGRFTISRDNAKNTVYLQMNSLKPEDTAVYYCAAEGHELTEGDSWGQGTQVTVSS",
    "polyreactivity (PSR sort gate)": "low polyreactivity"
  },
  {
    "Residues": "QVQLVDSGGGLVQAGGSLRLSWAASGITFYTYTMGWYRQAPGKERELVAAISRRGGGTYYADSVKGRFTISRDNGKNTVYFQMNILKTEVTAVYYCAKDWYGRYYYWGQGTEVTVSS",
    "polyreactivity (PSR sort gate)": "high polyreactivity"
  },
  {
    "Residues": "QLQLVESGGGLVQAGGSLRLSCAASGRTFWYYTMGWYRQAPGKERELVAAISSGGRTNYADSVKGRFTISLDNAKNTVYLQMNSLKPEDTAVYYCATSRYYKYVERDYWGQGTLVTVSS",
    "polyreactivity (PSR sort gate)": "high polyreactivity"
  },
  {
    "Residues": "QVQLVESGGGLVQEGGSLRLSCASSGSTFPRYVMGWYRKQTGTESELVAAISSSSGRTFYADSVKGRFTISRDNAKNTVYLQMNSLKPEDTAVYYCAARTSFNVHYWGQGTQVTVSS",
    "polyreactivity (PSR sort gate)": "high polyreactivity"
  },
  {
    "Residues": "QVQLVESGGGLVQAGGSLRLSCAASGITFNEYAMGWYIQAPGKERELVAAISRRGGSTYYADSVKGRFTISRDNAKNTVYLQMNSLKPEDTAVYYCAAYYPSHEYSGFWSDTYEYWGQGTQVTVSS",
    "polyreactivity (PSR sort gate)": "low polyreactivity"
  },
  {
    "Residues": "QVQLVESGGGLVQAGGSLRLSCPASGSTFRYYAMGWYRQAPGKERELVAAISYRGGSTKYADSVKGRFTISRDNAKNTVYLQMNSLKPEDTAVYYCNTAPWWRTSSDYEYWGQGTQVTVSS",
    "polyreactivity (PSR sort gate)": "high polyreactivity"
  },
  {
    "Residues": "QVQLVESGGGLVQAGGSLRLSCAATGSTRYYAMGWYRHAPGKERELVASIASIGGSTSYADSVKGRFTISRDNAKNTVYLQMNSLKPEDTAVYYCATRSLVYSARAAGLIQFDHWGQGTQVTVSS",
    "polyreactivity (PSR sort gate)": "low polyreactivity"
  }
]

In the following, a different sequence is considered.
Sure, the documented polyreactivity (PSR sort gate) for QVQLVESGGGLVQAGGSLRLSCAPSGFIFGSHAMGWYRQARGKERELVAAISARGGRTYYADSVKERFTISRDNAKNTVYLQMNSLKPADSAVYYCATLDTTGVNYWGQGTQVTVSS is high polyreactivity
